Examples of compounds with documented pKi follow.
target: UniProt P46098; assay: Displacement of [3H]GR65630 from human 5HT3A receptor in HEK293 cells
Sequence (P46098 whole entry): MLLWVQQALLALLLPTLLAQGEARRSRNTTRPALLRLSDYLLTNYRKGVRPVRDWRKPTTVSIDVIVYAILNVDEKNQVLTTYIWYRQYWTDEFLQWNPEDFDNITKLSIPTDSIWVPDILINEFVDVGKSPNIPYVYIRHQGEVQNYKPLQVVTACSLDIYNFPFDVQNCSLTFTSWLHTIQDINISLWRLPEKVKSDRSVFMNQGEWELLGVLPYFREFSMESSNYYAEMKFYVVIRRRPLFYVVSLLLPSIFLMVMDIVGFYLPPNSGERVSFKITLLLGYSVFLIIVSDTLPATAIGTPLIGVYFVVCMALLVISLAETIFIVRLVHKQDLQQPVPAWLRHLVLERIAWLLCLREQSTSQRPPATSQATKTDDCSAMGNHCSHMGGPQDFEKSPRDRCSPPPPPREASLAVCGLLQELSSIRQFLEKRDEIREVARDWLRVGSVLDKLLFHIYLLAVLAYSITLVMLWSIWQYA
Please express pKi as -log10 of the molar concentration.

{"compound": "C=CC[N+]12CC[C@@H]3[C@@H]4[C@@H]5[C@@H](OCC=C(C1)[C@@H]5C[C@@H]32)N1c2ccccc2[C@@]23CCN5CC6=CCO[C@H]([C@@H]([C@H]12)[C@H]6C[C@H]53)N4c1ccccc1.[Br-] (some centres undefined)", "assayed-system": "UniProt P46098", "pKi": 4.72}
{"compound": "C=CC[N+]12CC[C@@H]3[C@@H]4[C@@H]5[C@@H](OCC=C(C1)[C@@H]5C[C@@H]32)N1c2ccccc2[C@@]23CC[N+]5(CC=C)CC6=CCO[C@H]([C@@H]([C@H]12)[C@H]6C[C@@H]35)N4c1ccccc1.[Br-].[Br-] (some centres undefined)", "assayed-system": "UniProt P46098", "pKi": 4.00}
{"compound": "C1=CC([N+]23CC[C@@H]4[C@@H]5[C@@H]6[C@@H](OCC=C(C2)[C@@H]6C[C@@H]43)N2c3ccccc3[C@@]34CC[N+]6(C7C=CCCC7)CC7=CCO[C@H]([C@@H]([C@H]23)[C@H]7C[C@@H]46)N5c2ccccc2)CCC1.[Br-].[Br-] (some centres undefined)", "assayed-system": "UniProt P46098", "pKi": 5.57}

Param item = C[N+]12CC[C@@H]3[C@@H]4[C@@H]5[C@@H](OCC=C(C1)[C@@H]5C[C@@H]32)N1c2ccccc2[C@@]23CC[N+]5(C)CC6=CCO[C@H]([C@@H]([C@H]12)[C@H]6C[C@@H]35)N4c1ccccc1.[I-].[I-] (some centres undefined) ; retrieve measured pKi.
4.96

Param item = O=[N+]([O-])c1ccc(C[N+]23CCC4[C@@H]5/C(=C\N6c7ccccc7[C@@]78CC[N+]9(Cc%10ccc([N+](=O)[O-])cc%10)CC%10=CCO[C@H]([C@@H]([C@H]67)[C@H]%10C[C@@H]89)N5c5ccccc5)[C@@H](C[C@@H]42)/C(=C\CO)C3)cc1.[Br-].[Br-] (some centres undefined) ; retrieve measured pKi.
4.00

All values here come from ChEMBL document CHEMBL1148788.
